- Test system: sheep red blood cells;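 also: hemolysis expressed in % from supernatant absorbance, with PBS-treated cells as 0% baseline and melittin as 100%, peptide mixed 1:1 with an 8% v/v erythrocyte suspension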
- Stated Conditions: 150 μg/mL peptide; sheep red blood cells in PBS, 37°C, 1 h, OD576, relative to melittin; mean ± SD, three repeats
Where a SMILES comes first, the peptide text is derived from it.
Metric Name: Hemolytic rate, 150 μg/mL (%)
Only the number, expressed in %, is required.

Item CC[C@@H](C)[C@@H](NC(=O)[C@@H](CCCNC(=N)N)NC(=O)[C@@H](CCCNC(=N)N)NC(=O)[C@@H](Cc1ccccc1)NC(=O)[C@@H](CC(C)C)NC(=O)[C@@H](CCCNC(=N)N)NC(=O)[C@H](N)CCCNC(=N)N)C(=O)N[C@H](CC(C)C)C(=O)N[C@H](CCCNC(=N)N)C(=O)N[C@H](Cc1c[nH]c2ccccc12)C(=O)N[C@H](CC(C)C)C(N)=O [RW-BP100-All-D] (HELM PEPTIDE1{[dR].[dR].[dL].[dF].[dR].[dR].[dI].[dL].[dR].[dW].[dL].[am]}$$$$V2.0) with sheep red blood cells - Hemolytic rate, 150 μg/mL?
30.39
